Item-by-item account of composite z-score
System: Human papillomavirus type 1a E7 protein (residues 1-88)
methodDescription: HPV1a E7 small-molecule binders, primary screen, biochemical, small-molecule microarray, residues 1-88, 635 nm (AID 1129)
details: small-molecule microarray binding, fluorescence 635 nm; higher = more signal
Number, no unit, nothing else.

Illustrative cases are given below, each with its answer.
compound: CC(=O)OC[C@H]1OC(ON=CC[C@@H]2C=C[C@H](OC(C)=O)[C@@H](COC(C)=O)O2)[C@H](OC(C)=O)[C@@H](OC(C)=O)[C@@H]1OC(C)=O (stereo not given in full)
measuredOn: Human papillomavirus type 1a E7 protein (residues 1-88)
number: 0.268

compound: CCOC(=O)[C@H](CC(C)C)NC(=O)CCC1CC(OC(=O)NCCc2ccc(F)cc2)CC2(CCCC(COC(=O)NCCc3ccc(Cl)cc3)O2)O1 (stereo not given in full)
measuredOn: Human papillomavirus type 1a E7 protein (residues 1-88)
number: 0.596

compound: Cc1ccc(S(=O)(=O)OC[C@H]2CN3[C@H](c4ccc(Br)cc4)[C@@H](C)CC[C@H]3C(=O)O2)cc1
measuredOn: Human papillomavirus type 1a E7 protein (residues 1-88)
number: 0.269

compound: CC(C)CON=C1C[C@@H](O)[C@@H](O)[C@@H]2[C@@H]3C(=O)N(c4ccc(F)cc4F)C(=O)[C@@H]3CC[C@H]12
measuredOn: Human papillomavirus type 1a E7 protein (residues 1-88)
number: 1.11

We now examine a further compound.
Query: composite z-score; subject: COC(=O)[C@@H]1CC[C@H](C)[C@@H](c2ccc(C)cc2)N1C(=O)c1ccc(C=NO[C@H](C)c2cn([C@@H]3COC[C@H]3O)nn2)cc1 1.13
